B1: SNAP91 (parent)
chain: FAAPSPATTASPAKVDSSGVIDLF

Variants of: B1
Assay: protein stability index of a GFP-peptide fusion (GPS, HEK-293T) (PSI 1-6); higher = more stable;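 also: lentivirally expressed fusions sorted by FACS into six bins by GFP to DsRed ratio, PSI derived from sequencing read proportions per bin multiplied by bin number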
Conditions: c terminus: a fixed tail appended
Values of protein stability index greater than or equal to 3 map to 1; values below map to -1.

Input: In plain terms: is recorded protein stability index at least 3 for `S11E` ?
Output: -1

Input: Would you say `G19A` shows protein stability index at minimum 3?
Output: -1

These entries and their values trace back to the supplement of paper PMC10567573.
